Assay: Plasma pharmacokinetics after single and multiple oral administration of A. paniculata aqueous extract capsules in healthy participants (HPLC-MS/MS, non-compartmental analysis)
Type: in vivo, human
Conditions: human, plasma; single oral dose equivalent to 120 mg andrographolide, n = 11, median [IQR]
Experimental: An opened-label, two-dosage, single- and multiple-oral dosing, single center, phase I safety and pharmacokinetic study was conducted in healthy participants while they were under a fasting condition. […] Two weeks prior to the beginning of the clinical study, the volunteers were advised to abstain from other dietary supplements, herbal products, or any concomitant medicines. During the period of the study, no other medications were allowed. […]
measure: half-life (min)

C=C1CC[C@@H]2[C@](C)(CO)[C@H](O)CC[C@@]2(C)[C@@H]1CCC1=CCOC1=O [14-Deoxyandrographolide, 14-deoxyandrographolide]    12.6

a: C=C1CC[C@@H]2[C@](C)(CO[C@@H]3O[C@H](CO)[C@@H](O)[C@H](O)[C@H]3O)CCC[C@@]2(C)[C@@H]1CCC1=CCOC1=O [Neoandrographolide, neoandrographolide]
b: C=C1CC[C@@H]2[C@](C)(CO)[C@H](O)CC[C@@]2(C)[C@@H]1C/C=C1/C(=O)OC[C@H]1O [Andrographolide, andrographolide]
Between item a and item b , which reported half-life is smaller? I would appreciate it if you answered with the label of your choice.
a

====

assay: Plasma pharmacokinetics after single and multiple oral administration of A. paniculata aqueous extract capsules in healthy participants (HPLC-MS/MS, non-compartmental analysis); format: in vivo, human; settings: human, plasma; multiple oral doses 120 mg × 3 times/day of andrographolide, n = 11, mean ± SD; read-out: MRT
measure: MRT (h)

C=C1CC[C@@H]2[C@](C)(CO[C@@H]3O[C@H](CO)[C@@H](O)[C@H](O)[C@H]3O)CCC[C@@]2(C)[C@@H]1CCC1=CCOC1=O [Neoandrographolide, neoandrographolide]    1.9

a: C=C1CC[C@@H]2[C@](C)(CO)[C@H](O)CC[C@@]2(C)[C@@H]1CCC1=CCOC1=O [14-Deoxyandrographolide, 14-deoxyandrographolide]
b: C=C1CC[C@@H]2[C@](C)(CO)[C@H](O)CC[C@@]2(C)[C@@H]1C/C=C1/C(=O)OC[C@H]1O [Andrographolide, andrographolide]
Please compare: a and b . Report which one has the smaller MRT value. Response format: the label of the selected entry.
a

====

assay: Plasma pharmacokinetics after single and multiple oral administration of A. paniculata aqueous extract capsules in healthy participants (HPLC-MS/MS, non-compartmental analysis); type: in vivo, human; settings: human, plasma; single oral dose equivalent to 120 mg andrographolide, n = 11, mean ± SD; read-out: AUC(0-inf)
measure: AUC(0-inf) (ng·h/mL)

P: C=C1CC[C@@H]2[C@](C)(CO)[C@H](O)CC[C@@]2(C)[C@@H]1CCC1=CCOC1=O [14-Deoxyandrographolide, 14-deoxyandrographolide]
Q: C=C1CC[C@@H]2[C@](C)(CO[C@@H]3O[C@H](CO)[C@@H](O)[C@H](O)[C@H]3O)CCC[C@@]2(C)[C@@H]1CCC1=CCOC1=O [Neoandrographolide, neoandrographolide]
R: C=C1CC[C@@H]2[C@](C)(CO)[C@H](O)CC[C@@]2(C)[C@@H]1C/C=C1/C(=O)OC[C@H]1O [Andrographolide, andrographolide]
Rank entries according to their AUC(0-inf), from the largest number down. Would you mind listing the labels in the order asked for?
R, Q, P

====

assay: Plasma pharmacokinetics after single and multiple oral administration of A. paniculata aqueous extract capsules in healthy participants (HPLC-MS/MS, non-compartmental analysis); format: in vivo, human; details: human, plasma; single oral dose equivalent to 60 mg andrographolide, n = 12, mean ± SD; read-out: AUC(0–24h)
measure: AUC(0-t) (ng·h/mL)

P: C=C1CC[C@@H]2[C@](C)(CO[C@@H]3O[C@H](CO)[C@@H](O)[C@H](O)[C@H]3O)CCC[C@@]2(C)[C@@H]1CCC1=CCOC1=O [Neoandrographolide, neoandrographolide]
Q: C=C1CC[C@@H]2[C@](C)(CO)[C@H](O)CC[C@@]2(C)[C@@H]1C/C=C1/C(=O)OC[C@H]1O [Andrographolide, andrographolide]
Kindly compare P with Q and tell me which has the lower AUC(0-t) figure. Record your answer as the label of the chosen record.
P

====

assay: Plasma pharmacokinetics after single and multiple oral administration of A. paniculata aqueous extract capsules in healthy participants (HPLC-MS/MS, non-compartmental analysis); type: in vivo, human; conditions: human; single oral dose equivalent to 120 mg andrographolide, plasma T 0–24 h, n = 11, mean ± SD; read-out: Cmax
measure: Cmax (ng/mL)

C=C1CC[C@@H]2[C@](C)(CO)[C@H](O)CC[C@@]2(C)[C@@H]1CCC1=CCOC1=O [14-Deoxyandrographolide, 14-deoxyandrographolide]    11.6

A: C=C1CC[C@@H]2[C@](C)(CO[C@@H]3O[C@H](CO)[C@@H](O)[C@H](O)[C@H]3O)CCC[C@@]2(C)[C@@H]1CCC1=CCOC1=O [Neoandrographolide, neoandrographolide]
B: C=C1CC[C@@H]2[C@](C)(CO)[C@H](O)CC[C@@]2(C)[C@@H]1C/C=C1/C(=O)OC[C@H]1O [Andrographolide, andrographolide]
I'd appreciate it if you could identify which of A and B has the greater Cmax. # answer = label of selected item
B
(B: 112 ng/mL, A: 50.4 ng/mL)

====

experiment: Plasma pharmacokinetics after single and multiple oral administration of A. paniculata aqueous extract capsules in healthy participants (HPLC-MS/MS, non-compartmental analysis); format: in vivo, human; details: human; multiple oral doses 120 mg × 3 times/day of andrographolide, plasma T 0–8 h, n = 11, mean ± SD; read-out: Cmax
measure: Cmax (ng/mL)

I: C=C1CC[C@@H]2[C@](C)(CO)[C@H](O)CC[C@@]2(C)[C@@H]1CCC1=CCOC1=O [14-Deoxyandrographolide, 14-deoxyandrographolide]
II: C=C1CC[C@@H]2[C@](C)(CO[C@@H]3O[C@H](CO)[C@@H](O)[C@H](O)[C@H]3O)CCC[C@@]2(C)[C@@H]1CCC1=CCOC1=O [Neoandrographolide, neoandrographolide]
III: C=C1CC[C@@H]2[C@](C)(CO)[C@H](O)CC[C@@]2(C)[C@@H]1C/C=C1/C(=O)OC[C@H]1O [Andrographolide, andrographolide]
Sequence the entries by Cmax, beginning with the highest number. Reply format: the labels, ordered as requested.
III, II, I

====

assay: Plasma pharmacokinetics after single and multiple oral administration of A. paniculata aqueous extract capsules in healthy participants (HPLC-MS/MS, non-compartmental analysis); type: in vivo, human; settings: human, plasma; single oral dose equivalent to 60 mg andrographolide, n = 12, mean ± SD; read-out: Vd/F
measure: Vd/F (L/kg)

I: C=C1CC[C@@H]2[C@](C)(CO[C@@H]3O[C@H](CO)[C@@H](O)[C@H](O)[C@H]3O)CCC[C@@]2(C)[C@@H]1CCC1=CCOC1=O [Neoandrographolide, neoandrographolide]
II: C=C1CC[C@@H]2[C@](C)(CO)[C@H](O)CC[C@@]2(C)[C@@H]1C/C=C1/C(=O)OC[C@H]1O [Andrographolide, andrographolide]
Would you let me know which has the greater Vd/F value, I or II ? When you have decided, please share the label of that item.
II
(II: 9 L/kg, I: 0.74 L/kg)

====

Test: Plasma pharmacokinetics after single and multiple oral administration of A. paniculata aqueous extract capsules in healthy participants (HPLC-MS/MS, non-compartmental analysis)
Assay type: in vivo, human
Conditions: human, plasma; single oral dose equivalent to 120 mg andrographolide, n = 11, mean ± SD; read-out: MRT
Experimental: An opened-label, two-dosage, single- and multiple-oral dosing, single center, phase I safety and pharmacokinetic study was conducted in healthy participants while they were under a fasting condition. […] Two weeks prior to the beginning of the clinical study, the volunteers were advised to abstain from other dietary supplements, herbal products, or any concomitant medicines. During the period of the study, no other medications were allowed. […]
measure: MRT (h)

I: C=C1CC[C@@H]2[C@](C)(CO)[C@H](O)CC[C@@]2(C)[C@@H]1C/C=C1/C(=O)OC[C@H]1O [Andrographolide, andrographolide]
II: C=C1CC[C@@H]2[C@](C)(CO)[C@H](O)CC[C@@]2(C)[C@@H]1CCC1=CCOC1=O [14-Deoxyandrographolide, 14-deoxyandrographolide]
III: C=C1CC[C@@H]2[C@](C)(CO[C@@H]3O[C@H](CO)[C@@H](O)[C@H](O)[C@H]3O)CCC[C@@]2(C)[C@@H]1CCC1=CCOC1=O [Neoandrographolide, neoandrographolide]
Order the records so the highest MRT appears first and the lowest last. Show the ranking through the labels, in the order asked for.
I, III, II
(I: 5.3 h, III: 2.2 h, II: 1.5 h)

====

assay: Plasma pharmacokinetics after single and multiple oral administration of A. paniculata aqueous extract capsules in healthy participants (HPLC-MS/MS, non-compartmental analysis); assay type: in vivo, human; conditions: human, plasma; multiple oral doses 60 mg × 3 times/day of andrographolide, n = 12, median [IQR]
measure: half-life (min)

C=C1CC[C@@H]2[C@](C)(CO)[C@H](O)CC[C@@]2(C)[C@@H]1C/C=C1/C(=O)OC[C@H]1O [Andrographolide, andrographolide]    138

A: C=C1CC[C@@H]2[C@](C)(CO[C@@H]3O[C@H](CO)[C@@H](O)[C@H](O)[C@H]3O)CCC[C@@]2(C)[C@@H]1CCC1=CCOC1=O [Neoandrographolide, neoandrographolide]
B: C=C1CC[C@@H]2[C@](C)(CO)[C@H](O)CC[C@@]2(C)[C@@H]1CCC1=CCOC1=O [14-Deoxyandrographolide, 14-deoxyandrographolide]
Select one: A or B . Criterion: greater recorded half-life. API: response body contains the label of the selected item.
A
(A: 36 min, B: 13.8 min)
